Recorded No. of Dwarfs Not Rescued for the following compounds
# Tested on: constitutively GA-deficient transgenic dwarf soybean line 719
# assay.remarks: Experiment IV field test, seed imbibition, compacted soil
# Type: in vivo, Glycine max
# reported.conditions: stored solution 0.0025 mg/ml; imbibed 8 hours
I only need the number, thanks.

compound	No. of Dwarfs Not Rescued
C=C1C[C@]23C[C@@]1(O)CC[C@H]2[C@@]12CC=C[C@@](C)(C(=O)O1)[C@H]2[C@@H]3C(=O)O [GA5]	8
C=C1C[C@]23C[C@@]1(O)CC[C@H]2[C@@]12C=C[C@H](OC(C)=O)[C@@](C)(C(=O)O1)[C@H]2[C@@H]3C(=O)O [GA3-3-acetate]	0
C=C1C[C@@]23CC[C@H]4[C@@](C)(CCC[C@@]4(C)C(=O)O)[C@@H]2CC[C@@H]1C3 [kaurenoic acid]	5
C=C1C[C@]23C[C@@]1(O)CC[C@H]2[C@@]12C=C[C@H](O)[C@@](C)(C(=O)O1)[C@H]2[C@@H]3C(=O)O [GA3, gibberellic acid]	0
C=C1C[C@]23C[C@H]1CC[C@H]2[C@]1(C)CCC[C@@](C)(C(=O)O)[C@H]1[C@@H]3C(=O)O [GA12]	5

Kindly review the next compound as well.
q: Form field: reported No. of Dwarfs Not Rescued of C=C1C[C@]23C[C@H]1CC[C@H]2[C@@]12CCC[C@@](C)(C(=O)O1)[C@H]2[C@@H]3C(=O)O [GA9]
a: 7

---

# Tested on: wild-type A3237 soybean
# assay.remarks: Hilum treatment of soybean seeds, seedling growth and development, wild-type soybean
# Format: in vivo, Glycine max
# reported.conditions: rate response
# Method: In the previous experiments, the effect of various GA compounds on transgenic, GA-deficient and wild-type soybean is evaluated by treating seeds with these compounds via imbibition. […] As shown by the results presented below, direct application of small quantities of GA compounds dissolved in an organic solvent to the hilum is an effective method of treating soybean seeds. […] Emergence timing is measured by counting the number of emerged seedlings at different times after planting. […]
Recorded Lowest rate where biological activity is observed, emergence timing for the following compounds
Quick note: give the figure in μg/seed, leave out the unit.

Known results for compounds:
sample.smiles	numeric.result
C=C1C[C@]23C[C@H]1CC[C@H]2[C@@]12CCC[C@@](C)(C(=O)O1)[C@H]2[C@@H]3C(=O)O	0.1
C=C1C[C@]23C[C@@]1(O)CC[C@H]2[C@@]12CC=C[C@@](C)(C(=O)O1)[C@H]2[C@@H]3C(=O)O	0.1

q: Param readout = Lowest rate where biological activity is observed, emergence timing; param system = wild-type A3237 soybean; param query = C=C1C[C@]23C[C@@]1(O)CC[C@H]2[C@@]12C=C[C@H](O)[C@@](C)(C(=O)O1)[C@H]2[C@@H]3C(=O)O ; response: value
a: 0.1

---

# System: wild-type soybean line A3237
# assay.remarks: Experiment I greenhouse test, seed imbibition, wild-type soybean
# reported.conditions: 0.25 mg/ml; seeds imbibed 5 hours
parameter: Observation on Wild-Type Line A3237
I only need the number, thanks.

Known results for compounds:
compound	target	numeric.result
C=C1C[C@]23C[C@@]1(O)CC[C@H]2[C@@]12CC=C[C@@](C)(C(=O)O1)[C@H]2[C@@H]3C(=O)O [GA5]	wild-type soybean line A3237	4
C=C1C[C@@]23CC[C@@H]4C(C)(C)CCC[C@@]4(C)[C@@H]2CC[C@@H]1C3 [kaurene]	wild-type soybean line A3237	0
C=C1C[C@]23C[C@@]1(O)CC[C@H]2[C@@]12CC[C@H](O)[C@@](C)(C(=O)O1)[C@H]2[C@@H]3C(=O)O [GA1]	wild-type soybean line A3237	4

Kindly review the next compound as well.
q: Param readout = Observation on Wild-Type Line A3237; param system = wild-type soybean line A3237; param query = C=C1C[C@]23C[C@H]1CC[C@H]2[C@]1(C)CCC[C@@](C)(C(=O)O)[C@H]1[C@@H]3C(=O)O [GA12] ; response: value
a: −1

---

# Test system: transgenic line 719 soybean
# assay.remarks: Field trial of seed coatings under soil compaction / different soils, GA-deficient soybean
# Assay type: in vivo, Glycine max
# reported.conditions: Line 719; Light soil - Loose; target rate 2.0 μg/seed; Table 24
parameter: Count (emergence) (ab)
Quick note: give the figure in ab, leave out the unit.

Known results for compounds:
compound	numeric.result
C=C1C[C@]23C[C@@]1(O)CC[C@H]2[C@@]12C=C[C@H](OC(C)=O)[C@@](C)(C(=O)O1)[C@H]2[C@@H]3C(=O)O [GA3-3-acetate]	43.3
C=C1C[C@]23C[C@@]1(O)CC[C@H]2[C@@]12CC=C[C@@](C)(C(=O)O1)[C@H]2[C@@H]3C(=O)O	43.3

q: Form field: reported Count (emergence) of C=C1C[C@]23C[C@@]1(O)CC[C@H]2[C@@]12C=C[C@H](O)[C@@](C)(C(=O)O1)[C@H]2[C@@H]3C(=O)O
a: 43.7

---

# System: transgenic line 719 soybean
# assay.remarks: Field trial of seed coatings under soil compaction / different soils, GA-deficient soybean
# Type: in vivo, Glycine max
# reported.conditions: Line 719; Light soil - compacted; target rate 2.0 μg/seed; Table 24
parameter: Dwarfs (number not rescued)
I only need the number, thanks.

Known results for compounds:
compound	parameter	numeric.result
C=C1C[C@]23C[C@@]1(O)CC[C@H]2[C@@]12C=C[C@H](O)[C@@](C)(C(=O)O1)[C@H]2[C@@H]3C(=O)O	Dwarfs (number not rescued)	0
C=C1C[C@]23C[C@@]1(O)CC[C@H]2[C@@]12CC=C[C@@](C)(C(=O)O1)[C@H]2[C@@H]3C(=O)O	Dwarfs (number not rescued)	0

Kindly review the next compound as well.
q: Form field: reported Dwarfs (number not rescued) of C=C1C[C@]23C[C@@]1(O)CC[C@H]2[C@@]12C=C[C@H](OC(C)=O)[C@@](C)(C(=O)O1)[C@H]2[C@@H]3C(=O)O [GA3-3-acetate]
a: 0

---

# System: GA-deficient transgenic soybean line 719 (R5)
# assay.remarks: Hilum treatment of soybean seeds, seedling growth and development, GA-deficient soybean
# Format: in vivo, Glycine max
# reported.conditions: L719; hilum treatment, rate response
Recorded Lowest rate where biological activity is observed, 1st internode length (10 DAP) for the following compounds
Quick note: give the figure in μg/seed, leave out the unit.

Known results for compounds:
compound	numeric.result
C=C1C[C@]23C[C@@]1(O)CC[C@H]2[C@@]12C=C[C@H](O)[C@@](C)(C(=O)O1)[C@H]2[C@@H]3C(=O)O [GA3, gibberellic acid]	10
C=C1C[C@]23C[C@H]1CC[C@H]2[C@@]12CCC[C@@](C)(C(=O)O1)[C@H]2[C@@H]3C(=O)O [GA9]	10

Kindly review the next compound as well.
q: Form field: reported Lowest rate where biological activity is observed, 1st internode length (10 DAP) of C=C1C[C@]23C[C@@]1(O)CC[C@H]2[C@@]12CC=C[C@@](C)(C(=O)O1)[C@H]2[C@@H]3C(=O)O [GA5]
a: 1

---

# Test system: constitutively GA-deficient transgenic dwarf soybean line 719
# assay.remarks: Experiment IV field test, seed imbibition, compacted soil
# Format: in vivo, Glycine max
# reported.conditions: stored solution 0.025 mg/ml; imbibed 8 hours
parameter: No. of Dwarfs Not Rescued
I only need the number, thanks.

Known results for compounds:
compound	numeric.result
C=C1C[C@]23C[C@@]1(O)CC[C@H]2[C@@]12CC=C[C@@](C)(C(=O)O1)[C@H]2[C@@H]3C(=O)O	0
C=C1C[C@]23C[C@H]1CC[C@H]2[C@]1(C)CCC[C@@](C)(C(=O)O)[C@H]1[C@@H]3C(=O)O	4
C=C1C[C@]23C[C@@]1(O)CC[C@H]2[C@@]12C=C[C@H](OC(C)=O)[C@@](C)(C(=O)O1)[C@H]2[C@@H]3C(=O)O [GA3-3-acetate]	0
C=C1C[C@]23C[C@@]1(O)CC[C@H]2[C@@]12C=C[C@H](O)[C@@](C)(C(=O)O1)[C@H]2[C@@H]3C(=O)O	0
C=C1C[C@]23C[C@H]1CC[C@H]2[C@@]12CCC[C@@](C)(C(=O)O1)[C@H]2[C@@H]3C(=O)O	0

Kindly review the next compound as well.
q: Form field: reported No. of Dwarfs Not Rescued of C=C1C[C@@]23CC[C@H]4[C@@](C)(CCC[C@@]4(C)C(=O)O)[C@@H]2CC[C@@H]1C3
a: 4

---

Recorded A4922 Height, cm, Heavy soil for the following compounds
# Test system: wild-type soybean line A4922
# assay.remarks: Field trial of seed coating application rates, wild-type soybean
# reported.conditions: 0.1 μg compound per seed

Known results for compounds:
C=C1C[C@]23C[C@@]1(O)CC[C@H]2[C@@]12CC=C[C@@](C)(C(=O)O1)[C@H]2[C@@H]3C(=O)O 4.3 ghi cm
C=C1C[C@]23C[C@@]1(O)CC[C@H]2[C@@]12C=C[C@H](O)[C@@](C)(C(=O)O1)[C@H]2[C@@H]3C(=O)O 5.7 efg cm
C=C1C[C@]23C[C@H]1CC[C@H]2[C@@]12CCC[C@@](C)(C(=O)O1)[C@H]2[C@@H]3C(=O)O 5.7 efg cm

Kindly review the next compound as well.
q: Param readout = A4922 Height, cm, Heavy soil; param system = wild-type soybean line A4922; param query = C=C1C[C@]23C[C@H]1CC[C@H]2[C@]1(C)CCC[C@@](C)(C(=O)O)[C@H]1[C@@H]3C(=O)O ; response: value
a: 5.3 fg·cm
